From: the MegaScale stability set (Tsuboyama et al. 2023)

B1: r4_43_TrROS_Hall (parent)
chain: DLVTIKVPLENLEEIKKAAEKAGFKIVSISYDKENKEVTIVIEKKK

# Variants of: B1
# PROTOCOL_SUMMARY: folding stability dG (cDNA display proteolysis); higher = more stable
# RUN_PARAMETERS: PBS, room temperature
RESULT_TYPE: folding stability dG
Write the numeric value and follow it with the unit.

See these solved cases before continuing.
>>> print(df.to_string())
                             residue_string           result_type      measurement
0  DLVWIKVPLENLEEIKKAAEKAGFKIVSISYDKENKEVTIVIEKKK [T4W]  folding stability dG    3.88 kcal/mol
1  DLVTIKVLLENLEEIKKAAEKAGFKIVSISYDKENKEVTIVIEKKK [P8L]  folding stability dG    3.95 kcal/mol
2  DPVTIKVPLENLEEIKKAAEKAGFKIVSISYDKENKEVTIVIEKKK [L2P]  folding stability dG    3.23 kcal/mol
3  DSVTIKVPLENLEEIKKAAEKAGFKIVSISYDKENKEVTIVIEKKK [L2S]  folding stability dG    3.39 kcal/mol
4  DKVTIKVPLENLEEIKKAAEKAGFKIVSISYDKENKEVTIVIEKKK [L2K]  folding stability dG    3.52 kcal/mol
5  DLVTIKVPLENLEEIKKAAEKAGFKIVSISYDKELKEVTIVIEKKK [N35L]  folding stability dG    3.47 kcal/mol
6  DLVTIKVPLENLEEIKKAAEKAGFKIVSISYDKENKEVPIVIEKKK [T39P]  folding stability dG  -0.044 kcal/mol
7  DLVTIKVPLENLEEIKKAAEKAGFKIVSISYDKGNKEVTIVIEKKK [E34G]  folding stability dG     3.8 kcal/mol
8  DLVTIKVPLENLEEIKKAAEKAGFKIVSISYDKENKEVTIVIEKIK [K45I]  folding stability dG    3.87 kcal/mol
9  DLVTIKVPLENLEEIKKAAEDAGFKIVSISYDKENKEVTIVIEKKK [K21D]  folding stability dG    3.16 kcal/mol

Task item: For the variant shown here, DLVTIKVPLENLEEIDKAAEKAGFKIVSISYDKENKEVTIVIEKKK [K16D] , give the reported folding stability dG.
Reply: 2.66 kcal/mol

Task item: For the variant shown here, DLVTIKVPLENLEYIKKAAEKAGFKIVSISYDKENKEVTIVIEKKK [E14Y] , give the reported folding stability dG.
Reply: 3.75 kcal/mol
